ASSAY PROCEDURE: in vivo
PROTOCOL CONDITIONS: monkey, po
I'd be grateful if you could share measured half-life for these entries.
Numbers only, in h.

Dear colleague, could you please provide half-life for the compounds listed below?
1. O=C(O)COc1ccccc1
2. CC(Cc1ccccc1)C(=O)O (stereo not drawn) [ST 7, α-methylhydrocinnamic acid]

Result:
6.5
7.6

###

System: K562 cells
ASSAY PROCEDURE: Treatment of K562 cells and analysis of globin mRNA by primer extension
Format: cell-based, human
PROTOCOL CONDITIONS: Homo sapiens, K562, 72 h; primer extension, 1 mM, three days of culture, FIG. 1; read-out: increase in γ-globin mRNA over constitutive levels in untreated control K562 cells
Provide the reported fold induction at 1000 µM of each item.

COc1cc(C=CC(=O)O)cc(OC)c1O [ST 44, 3,5 dimethoxy 4-hydroxy cinnamic acid] ... 2.4 to 26
CCCC(=O)O [Butyric acid, butyric acid, reference compound] ... 2
COc1ccccc1C=CC(=O)O [ST 32, 2-methoxycinnamic acid] ... 2.4 to 26
COc1ccccc1/C=C\C(=O)O [ST 34, cis-2-methoxycinnamic acid] ... 2.4 to 26
CCC(C)(C)C(=O)O [ST 20, 2,2 dimethylbutyric acid] ... 2.4 to 26

Parameters: items (list). Returns: fold induction at 1000 µM for each item.
1. O=C(O)/C=C/c1ccccc1 [ST 47, transcinnamic acid]
2. Cc1ccccc1CCC(=O)O [ST 33, 2 methyl hydrocinnamic acid]
3. COc1ccc(CC(=O)O)cc1OC [ST 37, 3,4 dimethoxy phenyl acetic acid]

Result:
1. 2.4 to 26
2. 2.4 to 26
3. 2.4 to 26
